Kindly supply the reported pIC50 values for the records listed here.
# Target under test: androgen receptor (AR) (Homo sapiens, UniProt P10275, T878A)
# Construct: LNCaP cells expressing ARR2PB-FireflyLuc and CMV-RenillaLuc; endogenous in cells; host or cells: LNCaP cells carrying ARR2PB-FireflyLuc and CMV-RenillaLuc reporters
# Sequence (P10275 whole entry T878A): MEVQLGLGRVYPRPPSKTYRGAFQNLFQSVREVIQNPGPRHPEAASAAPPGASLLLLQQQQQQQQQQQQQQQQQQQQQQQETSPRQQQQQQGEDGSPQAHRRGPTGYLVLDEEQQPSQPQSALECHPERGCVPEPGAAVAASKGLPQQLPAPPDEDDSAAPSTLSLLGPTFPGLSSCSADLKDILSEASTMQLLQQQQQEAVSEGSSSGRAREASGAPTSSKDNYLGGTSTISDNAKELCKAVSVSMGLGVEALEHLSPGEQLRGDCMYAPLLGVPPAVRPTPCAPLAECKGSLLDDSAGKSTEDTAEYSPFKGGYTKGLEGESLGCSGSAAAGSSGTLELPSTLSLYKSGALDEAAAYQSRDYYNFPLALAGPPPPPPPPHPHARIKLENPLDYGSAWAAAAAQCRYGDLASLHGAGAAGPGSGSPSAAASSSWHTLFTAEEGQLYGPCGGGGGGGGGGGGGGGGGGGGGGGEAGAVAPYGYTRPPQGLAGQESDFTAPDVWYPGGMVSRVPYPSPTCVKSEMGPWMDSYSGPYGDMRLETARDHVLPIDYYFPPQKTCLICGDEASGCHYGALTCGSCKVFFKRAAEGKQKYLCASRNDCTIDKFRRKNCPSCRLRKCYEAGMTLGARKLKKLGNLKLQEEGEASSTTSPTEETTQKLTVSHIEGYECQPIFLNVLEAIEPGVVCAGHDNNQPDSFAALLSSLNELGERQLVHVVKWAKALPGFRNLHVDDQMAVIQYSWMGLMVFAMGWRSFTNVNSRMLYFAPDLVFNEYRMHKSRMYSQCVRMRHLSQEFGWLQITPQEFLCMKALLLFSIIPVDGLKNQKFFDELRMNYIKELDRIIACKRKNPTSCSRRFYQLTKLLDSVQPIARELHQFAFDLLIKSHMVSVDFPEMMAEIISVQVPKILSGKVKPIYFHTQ
# Measurement notes: AR reporter assay in LNCaP cells expressing ARR2PB-FireflyLuc and CMV-RenillaLuc, antagonist mode (% remaining activity, IC50)
# Format: cell-based
# Test parameters: 48 h at 37° C., class symbols A-D, read-out: IC50
pIC50: −log10 of the molar value.

Here are 3 molecules together with their reported answers.
| Molecule | pIC50 |
| --- | --- |
| N#Cc1cccc2c(-c3cnc(OC4CCNC4)c(OC(F)F)n3)c[nH]c12 (stereo not drawn) [Compound 244] | < 5.00 |
| Cc1nc(-c2c[nH]c3c(C#N)cccc23)cnc1OC[C@@H]1[C@@H]2CNC[C@@H]21 [Compound 247] | 5.00 to 6.00 |
| N#Cc1cccc2c(-c3cnc(N)c(OC(F)F)n3)c[nH]c12 [Compound 172] | > 7.00 |

Each of the following entries comes with a recorded value; kindly state pIC50 for each.
1. Cc1nc(-c2c[nH]c3c(C#N)cccc23)cnc1N [Compound 149]
2. CC1NC(=O)c2ccc(-c3n[nH]c4ccccc34)cc21 (stereo not drawn) [Compound 109]
3. Fc1ccc(-c2n[nH]c3cccnc23)nc1 [Compound 112]
4. NCc1cccc2c(-c3ccc4ncccc4n3)n[nH]c12 [Compound 86]
5. COCCOc1cccc(-c2c[nH]c3c(C#N)cccc23)n1 [Compound 167]
6. CC(=O)N1CCC(Oc2ncc(-c3c[nH]c4c(F)cccc34)nc2C)C1 (stereo not drawn) [Compound 291]

Reply text:
1: 6.00 to 7.00; 2: 6.00 to 7.00; 3: < 5.00; 4: 6.00 to 7.00; 5: 5.00 to 6.00; 6: 6.00 to 7.00

###

# Target under test: androgen receptor (AR) (Homo sapiens, UniProt P10275, T878A)
# Construct: LNCaP cells expressing ARR2PB-FireflyLuc and CMV-RenillaLuc; endogenous in cells; host or cells: LNCaP cells carrying ARR2PB-FireflyLuc and CMV-RenillaLuc reporters
# Measurement notes: AR reporter assay in LNCaP cells expressing ARR2PB-FireflyLuc and CMV-RenillaLuc, antagonist mode (% remaining activity, IC50)
# Type: cell-based
# Test parameters: 48 h at 37° C., class symbols A-D, read-out: IC50
Kindly supply the reported IC50 values for the records listed here.

Here are 5 compounds together with their reported answers.
| Compound | IC50 |
| --- | --- |
| Cc1cc2[nH]nc(-c3ccc4c(n3)CCCN4)c2cc1F [Compound 44] | 100 to 1000 nM |
| Cc1nc(-c2c[nH]c3c(C#N)cccc23)cnc1NC1CCCNC1 (stereo not shown) [Compound 232] | > 10000 nM |
| CC(=O)N(C)CCOc1ncc(-c2c[nH]c3c(Cl)cccc23)nc1C [Compound 263] | 100 to 1000 nM |
| COc1ccc2c(-c3ccc(N)c(C)n3)c[nH]c2c1C#N [Compound 211] | > 10000 nM |
| Fc1cc2[nH]nc(-c3ccc4c(n3)COCC4)c2cc1F [Compound 39] | 1000 to 10000 nM |

Each of the following entries comes with a recorded value; kindly state IC50 for each.
1. CN1Cc2nc(-c3n[nH]c4cc(F)c(F)cc34)ccc2C1=O [Compound 42]
2. Fc1ccc(-c2c[nH]c3cnccc23)nc1 [Compound 200]
3. N#Cc1cccc2c(-c3cccc(OC4CCNC4)n3)c[nH]c12 (stereo not shown) [Compound 168]
4. CC1(C)c2nc(-c3c[nH]c4c(C#N)cccc34)ccc2C(=O)N1CCCCO [Compound 236]
5. CC1CCNc2ccc(-c3n[nH]c4cc(F)c(F)cc34)nc21 (single isomer, unassigned) [Compound 48]

Reply text:
1. 1000 to 10000 nM
2. > 10000 nM
3. > 10000 nM
4. > 10000 nM
5. < 100 nM
